Can you tell me inhibition at 20 µM for the items I'm about to list?
# Measurement target: KRas G12D/Q61H double mutant (Homo sapiens (Human), UniProt P01116, G12D/Q61H)
# Sequence (P01116-2 other isoform, or with tags, fused parts or gaps G12D/Q61H): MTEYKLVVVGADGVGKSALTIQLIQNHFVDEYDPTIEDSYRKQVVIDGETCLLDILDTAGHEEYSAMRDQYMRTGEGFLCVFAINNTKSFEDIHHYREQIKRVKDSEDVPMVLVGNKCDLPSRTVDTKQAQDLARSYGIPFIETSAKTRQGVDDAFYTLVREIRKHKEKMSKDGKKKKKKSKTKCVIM
# Assay method text: Ras GTP binding domain inhibition assay (labeled GTP)
# Conditions: 20 μM compound; read-out: % Inhibition at 20 μM KRas G12D Q61H

Task: Which value of inhibition at 20 µM has been reported for CCCN(CC1CC1)S(=O)(=O)Oc1cccc(C(=O)NCc2ccccc2)c1 in the records?
Result: 25 to 50%

Task: One more compound: CC1(C)NC(=O)N(CC(=O)Nc2nc(-c3ccccn3)cs2)C1=O
Result: 1 to 25%

Task: One more compound: COc1cccc(N2CCN(C(=O)c3csc4c(O)nc(-c5ccccn5)nc34)CC2)c1 [drawing 2713]
Result: 1 to 25%

Task: One more compound: CS(=O)(=O)CCCC(=O)N1CCCc2c(O)nc(-c3ccccn3)nc21 [drawing 2650]
Result: 51 to 75%

Task: One more compound: Cc1nc(-c2ccccn2)sc1C(=O)NCCNc1ncccn1
Result: 1 to 25%

Task: One more compound: OCC1(c2ccc(-c3csc4c(O)nc(-c5ccccn5)nc34)cc2)CC1 [drawing 2886]
Result: 51 to 75%

Task: One more compound: O=C(Nc1nnc(-c2ccccn2)[nH]1)C1CCS(=O)(=O)C1 (stereo not drawn)
Result: 25 to 50%

Task: One more compound: Cc1cccc(C(=O)Nc2ccc(OS(=O)(=O)N3CCc4ccccc4C3)cc2)c1
Result: 25 to 50%

Task: One more compound: COc1ccc(CN(Cc2cccs2)C(=O)c2cc3ccccc3o2)cc1OC
Result: 25 to 50%

Task: One more compound: COC(=O)c1csc2c(O)nc(-c3ccccn3)nc12 [drawing 2823]
Result: 1 to 25%

Task: One more compound: COc1ccc(CCNC(=O)c2cc(S(=O)(=O)N3CCOCC3)ccc2OC)cc1OC
Result: 1 to 25%

Task: One more compound: O=C(CCCNc1ncccn1)Nc1nnc(-c2ccccn2)[nH]1
Result: 25 to 50%

Task: One more compound: Cc1sc(C2CC2)nc1-c1ccc(F)c(F)c1
Result: 25 to 50%

Task: One more compound: COc1nccc(CCNC(=O)c2csc3nc(-c4ccccn4)nc(N4CCOCC4)c23)n1 [drawing 2897]
Result: 1 to 25%

Task: One more compound: Cc1cccc(OC2CCN(c3nc(-c4ccccn4)nc4c3CCC4)CC2)n1
Result: 1 to 25%

Task: One more compound: CCc1noc(CNc2cc(C(=O)OC)cc(C(F)(F)F)c2)n1
Result: 25 to 50%

Task: One more compound: Cc1nc(-c2ccccn2)nc(O)c1CCC(=O)NCc1ccccc1F
Result: 25 to 50%

Task: One more compound: Cc1sc(NC2CCCCC2)nc1-c1ccc(F)c(F)c1
Result: 25 to 50%

Task: One more compound: O=C(NCCc1cccs1)c1cc(S(=O)(=O)N2CCCCC2)ccc1N1CCOCC1
Result: 1 to 25%

Task: One more compound: O=c1[nH]c(-c2cc(OCC(F)F)ccn2)nc2cc(F)ccc12
Result: 51 to 75%

Task: One more compound: CC(=O)N1CCC(C(=O)Nc2nnc(-c3ccccn3)[nH]2)CC1
Result: 25 to 50%
